What intrinsic clearance, human liver microsomes was measured for each of the following?
Respond numerically; units are mL/min/kg and should not be typed.

Please fill in: intrinsic clearance, human liver microsomes reported for `COc1ccc(N2CCCN(CC3CCN(C(=O)C4CC4)CC3)CC2)cc1` = 5.03

Please fill in: intrinsic clearance, human liver microsomes reported for `NCc1ccc(-n2cnc3ccccc32)cc1Cl` = 13

Please fill in: intrinsic clearance, human liver microsomes reported for `Cc1ncsc1-c1nc(CNc2cc(F)cc(F)c2)no1` = 65.7

Please fill in: intrinsic clearance, human liver microsomes reported for `O=C(Nc1ccccc1)c1scnc1-c1ccccc1` = 110

Please fill in: intrinsic clearance, human liver microsomes reported for `Cc1cccc(-c2nc(CN(Cc3cnn(C)c3)C(C)C)c(C)o2)c1` = 62.6

Please fill in: intrinsic clearance, human liver microsomes reported for `COc1ccc2nc(CN3CCC(O)(c4ccc(C)cc4)CC3)ccc2c1` = 44.5

Please fill in: intrinsic clearance, human liver microsomes reported for `Cc1nc2cc(=O)[nH]n2c(C)c1CC(=O)OC1CCCCC1` = 10.5

Please fill in: intrinsic clearance, human liver microsomes reported for `COc1ccccc1-c1ccc(CC2(C(=O)NC3CC3)CCOCC2)cc1` = 81.4

Please fill in: intrinsic clearance, human liver microsomes reported for `Cc1c[nH]c(CNCc2ccccc2CC(C)C)n1` = 35.6

----------
What intrinsic clearance, human liver microsomes was measured for each of the following?
Respond numerically; units are mL/min/kg and should not be typed.

Please fill in: intrinsic clearance, human liver microsomes reported for `Cc1ccc2occ(CN3C[C@H]4CCCN4C[C@H]3C)c(=O)c2c1` = 24

Please fill in: intrinsic clearance, human liver microsomes reported for `O=C(Nc1cc[nH]n1)c1ccc2c(c1)[nH]c(=O)n2C1CCCC1` = 18.1

Please fill in: intrinsic clearance, human liver microsomes reported for `CC(C)CCN1CCc2nc3cc(C4CC4)nn3c(O)c2C1` = 7.62

Please fill in: intrinsic clearance, human liver microsomes reported for `COc1cccc(C)c1C(=O)N(C)CCCn1cccn1` = 38

Please fill in: intrinsic clearance, human liver microsomes reported for `O=S(=O)(c1ccccc1)N(CC(F)(F)F)c1ccc(C(O)(C(F)(F)F)C(F)(F)F)cc1` = 7.61

Please fill in: intrinsic clearance, human liver microsomes reported for `O=c1c2cnccc2ncn1Cc1ccc2c(c1)CCCO2` = 45.9

Please fill in: intrinsic clearance, human liver microsomes reported for `CN(C)c1nc(N)nc(Sc2ccccc2)n1` = 108

Please fill in: intrinsic clearance, human liver microsomes reported for `N#CCc1ccc(OCc2ccncc2)cc1` = 53.3

Please fill in: intrinsic clearance, human liver microsomes reported for `CCSCCC(=O)NCCn1nc(C)c(CC)c1C` = 146

Please fill in: intrinsic clearance, human liver microsomes reported for `C=CCNC(=O)C1(Cc2ccc(-c3ccccc3)cc2)CCN(C(=O)c2cccnc2)CC1` = 76.7

Please fill in: intrinsic clearance, human liver microsomes reported for `O=c1ncn2nc(Sc3ccc(F)cc3F)ccc2c1-c1c(Cl)cccc1Cl` = 14.6

Please fill in: intrinsic clearance, human liver microsomes reported for `CN(Cc1ccc(OC(F)(F)F)cc1)Cc1cn(C)nn1` = 15

Please fill in: intrinsic clearance, human liver microsomes reported for `COc1cccc(C(=O)Nc2nccs2)c1` = 109

Please fill in: intrinsic clearance, human liver microsomes reported for `Cc1cnc(N2CCSCC2)nc1N1CCSCC1` = 193

Please fill in: intrinsic clearance, human liver microsomes reported for COC(=O)[C@]12CCC(C)(C)CC1C1C(=O)C=C3[C@@]4(C)C=C(C#N)C(=O)C(C)(C)[C@@H]4CC[C@@]3(C)[C@]1(C)CC2 (stereo partly drawn) = 93.5

Please fill in: intrinsic clearance, human liver microsomes reported for `CCN(C)S(=O)(=O)N(C)Cc1cnc2ccccc2c1` = 15.1

Please fill in: intrinsic clearance, human liver microsomes reported for `O=c1[nH]c2ccccc2n1C1CCN(Cc2nnc(-c3cc4c(s3)CCCC4)o2)CC1` = 51.8

Please fill in: intrinsic clearance, human liver microsomes reported for `CC(=O)N1CCCN(C(=O)Nc2ccc(N(C)C3CCCCC3)c(F)c2)CC1` = 103

Please fill in: intrinsic clearance, human liver microsomes reported for `Cc1cn2nc(-c3cc(=O)n4cc(N5CCNC6(CC6)C5)ccc4n3)cc(C)c2n1` = 17.5

Please fill in: intrinsic clearance, human liver microsomes reported for `c1ccc(CCc2n[nH]c(-c3cccc4cnccc34)n2)cc1` = 107
